Test system: rhIFNγ stimulated STAT-3 phosphorylation in the A549 human epithelial cell line
Assay: A549 Cell Assay: Inhibition of pSTAT3
Assay type: cell-based
Conditions: Homo sapiens; A549 cells
pIC50: −log10 of the molar value.

smi	tested.target	pIC50
CNC(=O)c1n[nH]c2nc(-c3cc(F)c(O)cc3CC(F)(F)F)nc(NCc3cc(F)ccc3N(C)S(C)(=O)=O)c12	rhIFNγ stimulated STAT-3 phosphorylation in the A549 human epithelial cell line	6.53
CNC(=O)c1n[nH]c2cc(-c3cc(F)c(O)cc3CC(F)(F)F)nc(NCc3nccnc3N(C)S(=O)(=O)c3ccccc3)c12	rhIFNγ stimulated STAT-3 phosphorylation in the A549 human epithelial cell line	7.22
CN(c1ccccc1CNc1nc(-c2cc(F)c(O)cc2C2CC2)cc2[nH]nc(C(N)=O)c12)S(C)(=O)=O	rhIFNγ stimulated STAT-3 phosphorylation in the A549 human epithelial cell line	6.55
CCc1cc(O)c(F)cc1-c1cc2[nH]nc(C(=O)NC)c2c(NCc2ccccc2N(C)S(C)(=O)=O)n1	rhIFNγ stimulated STAT-3 phosphorylation in the A549 human epithelial cell line	7.92
CCc1cc(O)c(F)cc1-c1cc2[nH]nc(C(=O)NC)c2c(NCc2ccccc2N(CC)S(=O)(=O)CC)n1	rhIFNγ stimulated STAT-3 phosphorylation in the A549 human epithelial cell line	7.33
CN(c1ncc(Cl)cc1CNc1nc(-c2cc(F)c(O)cc2CC(F)(F)F)cc2[nH]nc(C(N)=O)c12)S(C)(=O)=O	rhIFNγ stimulated STAT-3 phosphorylation in the A549 human epithelial cell line	7.03
CN(c1ccccc1CNc1nc(-c2cc(F)c(O)cc2CC(F)(F)F)cc2[nH]nc(C(N)=O)c12)S(=O)(=O)c1ccc(N2CCOCC2)nc1	rhIFNγ stimulated STAT-3 phosphorylation in the A549 human epithelial cell line	6.79

###

Tested on: rhIFNγ stimulated STAT-3 phosphorylation in the A549 human epithelial cell line
Test: A549 Cell Assay: Inhibition of pSTAT3
Format: cell-based
Details: Homo sapiens; A549 cells
pIC50: −log10 of the molar value.
Listed here: items and their measured pIC50.

smi	tested.target	pIC50
CCc1cc(O)c(F)cc1-c1cc2[nH]nc(C(N)=O)c2c(NCc2ccccc2N(C)S(=O)(=O)c2ccccc2)n1	rhIFNγ stimulated STAT-3 phosphorylation in the A549 human epithelial cell line	7.30
CCN(c1ncc(C)cc1CNc1nc(-c2cc(F)c(O)cc2CC(F)(F)F)cc2[nH]nc(C(N)=O)c12)S(C)(=O)=O	rhIFNγ stimulated STAT-3 phosphorylation in the A549 human epithelial cell line	6.67
CCc1cc(O)c(F)cc1-c1cc2[nH]nc(C(=O)NC)c2c(NCc2c(F)cccc2N(C)S(C)(=O)=O)n1	rhIFNγ stimulated STAT-3 phosphorylation in the A549 human epithelial cell line	8.19
CNC(=O)c1n[nH]c2cc(-c3cc(F)c(O)cc3CC(F)(F)F)nc(NCc3cc(O)ccc3N(C)S(=O)(=O)c3cccnc3)c12	rhIFNγ stimulated STAT-3 phosphorylation in the A549 human epithelial cell line	6.87

###

System: rhIFNγ stimulated STAT-3 phosphorylation in the A549 human epithelial cell line
Test: A549 Cell Assay: Inhibition of pSTAT3
Assay type: cell-based
Conditions: Homo sapiens; A549 cells
Hi! Just check whether IC50 is below 200 nM. Below gives Met, equal or above gives Not met.

smi	label.class
CCN(c1ccc(O)cc1CNc1nc(-c2cc(F)c(O)cc2CC(F)(F)F)cc2[nH]nc(C(=O)NC)c12)S(C)(=O)=O	Not met
CNC(=O)c1n[nH]c2cc(-c3cc(F)c(O)cc3CC(F)(F)F)nc(NCc3ccccc3N(CCO)S(C)(=O)=O)c12	Not met
CCN(c1ccccc1CNc1nc(-c2cc(F)c(O)cc2CC(F)(F)F)cc2[nH]nc(C(=O)NC)c12)S(C)(=O)=O	Met
CNC(=O)c1n[nH]c2cc(-c3cc(F)c(O)cc3CC(F)(F)F)nc(NCc3ccccc3N(C)S(=O)(=O)c3cn[nH]c3)c12	Met
CNC(=O)c1n[nH]c2cc(-c3cc(F)c(O)cc3CC(F)(F)F)nc(NCc3cc(O)ccc3N(C)S(=O)(=O)c3ccccc3)c12	Not met
CCN(c1ccccc1CNc1nc(-c2cc(F)c(O)cc2CC(F)(F)F)cc2[nH]nc(C(N)=O)c12)S(C)(=O)=O	Met

###

Target: JAK1 (Homo sapiens (Human), UniProt P23458)
Sequence (P23458 whole entry): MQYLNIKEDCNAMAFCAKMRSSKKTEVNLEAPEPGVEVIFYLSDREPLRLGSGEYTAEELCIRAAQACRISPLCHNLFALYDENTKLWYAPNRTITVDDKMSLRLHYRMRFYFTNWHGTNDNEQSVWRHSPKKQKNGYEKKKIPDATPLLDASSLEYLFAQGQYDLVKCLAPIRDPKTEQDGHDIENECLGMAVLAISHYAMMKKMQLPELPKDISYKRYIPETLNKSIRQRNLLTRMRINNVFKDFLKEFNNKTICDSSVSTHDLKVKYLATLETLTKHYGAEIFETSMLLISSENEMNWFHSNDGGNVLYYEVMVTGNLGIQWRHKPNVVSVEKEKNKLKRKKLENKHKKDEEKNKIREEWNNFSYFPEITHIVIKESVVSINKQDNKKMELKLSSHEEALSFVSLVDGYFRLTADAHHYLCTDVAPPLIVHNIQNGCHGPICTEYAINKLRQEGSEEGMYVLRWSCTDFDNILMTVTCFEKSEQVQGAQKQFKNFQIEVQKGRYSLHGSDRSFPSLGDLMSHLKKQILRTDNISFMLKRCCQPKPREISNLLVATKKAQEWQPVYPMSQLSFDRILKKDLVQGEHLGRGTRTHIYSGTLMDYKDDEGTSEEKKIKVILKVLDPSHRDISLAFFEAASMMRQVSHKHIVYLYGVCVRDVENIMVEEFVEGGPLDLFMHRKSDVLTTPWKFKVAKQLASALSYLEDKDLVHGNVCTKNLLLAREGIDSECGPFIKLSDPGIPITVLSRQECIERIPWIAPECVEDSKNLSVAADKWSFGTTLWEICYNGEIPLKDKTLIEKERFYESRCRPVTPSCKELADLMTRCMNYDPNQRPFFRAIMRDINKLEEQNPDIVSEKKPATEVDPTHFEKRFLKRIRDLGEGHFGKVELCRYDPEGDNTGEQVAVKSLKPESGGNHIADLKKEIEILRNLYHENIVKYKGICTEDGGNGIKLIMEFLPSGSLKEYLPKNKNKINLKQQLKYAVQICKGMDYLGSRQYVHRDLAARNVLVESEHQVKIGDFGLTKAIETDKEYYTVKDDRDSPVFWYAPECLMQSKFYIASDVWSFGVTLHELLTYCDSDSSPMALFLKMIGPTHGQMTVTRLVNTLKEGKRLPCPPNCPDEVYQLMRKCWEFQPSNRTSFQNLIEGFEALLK
Hi! Just check whether IC50 is below 6 nM. Below gives Met, equal or above gives Not met.

smi	tested.target	label.class
CNC(=O)c1n[nH]c2cc(-c3cc(F)c(O)cc3CC(F)(F)F)nc(NCc3ccc(O)cc3N(C)S(C)(=O)=O)c12	JAK1 (Homo sapiens (Human), UniProt P23458)	Met
Cc1cnc(N(C)S(C)(=O)=O)c(CNc2nc(-c3cc(F)c(O)cc3CC(F)(F)F)cc3[nH]nc(C(N)=O)c23)c1	JAK1 (Homo sapiens (Human), UniProt P23458)	Not met
CCS(=O)(=O)N(C)c1ccccc1CNc1nc(-c2cc(F)c(O)cc2CC(F)(F)F)cc2[nH]nc(C(=O)NC)c12	JAK1 (Homo sapiens (Human), UniProt P23458)	Met
CCc1cc(O)c(F)cc1-c1cc2[nH]nc(C(=O)NC)c2c(NCc2ccccc2N(C)S(=O)(=O)c2ccccc2)n1	JAK1 (Homo sapiens (Human), UniProt P23458)	Not met
CCN(c1ccccc1CNc1nc(-c2cc(F)c(O)cc2CC(F)(F)F)cc2[nH]nc(C(=O)NC)c12)S(C)(=O)=O	JAK1 (Homo sapiens (Human), UniProt P23458)	Not met

###

Here's a batch of molecules along with measured IC50 for JAK2 (Homo sapiens (Human), UniProt O60674).

molecule	unit.spec	IC50
Cc1cnc(N(C)S(C)(=O)=O)c(CNc2nc(-c3cc(F)c(O)cc3CC(F)(F)F)cc3[nH]nc(C(N)=O)c23)c1 [Example 86]	µM	0.11
CCc1cc(O)c(F)cc1-c1cc2[nH]nc(C(=O)NC)c2c(NCc2cc(C)ccc2N(C)S(C)(=O)=O)n1 [Example 21]	µM	0.0132
CCN(c1ccccc1CNc1nc(-c2cc(F)c(O)cc2CC(F)(F)F)cc2[nH]nc(C(=O)NC)c12)S(C)(=O)=O [Example 12]	µM	0.0315

###

Tested on: rhIL-2 stimulated STAT5 phosphorylation in isolated human T cells
Assay: Human T Cell Assay: Inhibition of pSTAT5
Assay type: cell-based
Structures can show the parent of a compound that is named as a salt.
quantity.name: IC50

compound	tested.target	obs.value
CCc1cc(O)c(F)cc1-c1cc2[nH]ncc2c(N(C)Cc2ccccc2N(CC)S(C)(=O)=O)n1 [Example 145, hydrochloride]	rhIL-2 stimulated STAT5 phosphorylation in isolated human T cells	0.157 µM
CNC(=O)c1n[nH]c2cc(-c3cc(F)c(O)cc3CC(F)(F)F)nc(NCc3ccccc3N(C)S(C)(=O)=O)c12	rhIL-2 stimulated STAT5 phosphorylation in isolated human T cells	0.0319 µM
CN(c1ccccc1CNc1nc(-c2cc(F)c(O)cc2CC(F)(F)F)cc2[nH]nc(C(N)=O)c12)S(C)(=O)=O	rhIL-2 stimulated STAT5 phosphorylation in isolated human T cells	0.0599 µM
CCc1cc(O)c(F)cc1-c1cc2[nH]nc(C(=O)NC)c2c(NCc2ccccc2N(C)S(C)(=O)=O)n1	rhIL-2 stimulated STAT5 phosphorylation in isolated human T cells	0.0202 µM
CCc1cc(O)c(F)cc1-c1cc2[nH]ncc2c(N(C)Cc2ccccc2N(C)S(C)(=O)=O)n1 [Example 146, hydrochloride]	rhIL-2 stimulated STAT5 phosphorylation in isolated human T cells	0.0623 µM

###

Here's a batch of molecules along with measured IC50 for JAK1 (Homo sapiens (Human), UniProt P23458).
quantity.name: IC50

molecule	obs.value
CNC(=O)c1n[nH]c2cc(-c3cc(F)c(O)cc3CC(F)(F)F)nc(NCc3cc(O)ccc3N(C)S(=O)(=O)c3ccccc3)c12 [Example 35]	39.9 nM
CNC(=O)c1n[nH]c2cc(-c3cc(F)c(O)cc3CC(F)(F)F)nc(NCc3ccccc3N(CCO)S(C)(=O)=O)c12 [Example 24]	2.9 nM
CNC(=O)c1n[nH]c2cc(-c3cc(F)c(O)cc3CC(F)(F)F)nc(NCc3c(F)cccc3N(C)S(C)(=O)=O)c12 [Example 18]	4 nM
CCc1cc(O)c(F)cc1-c1cc2[nH]nc(C(=O)NC)c2c(NCc2cc(C)ccc2N(C)S(C)(=O)=O)n1 [Example 21]	2.7 nM

###

Test system: rhIFNγ stimulated STAT-3 phosphorylation in the A549 human epithelial cell line
Assay: A549 Cell Assay: Inhibition of pSTAT3
Type: cell-based
Conditions: Homo sapiens; A549 cells
Structures can show the parent of a compound that is named as a salt.
Our labelling divides records by IC50 into ranges: low: < 30 nM; moderate: ≥ 30 nM and < 200 nM; high: ≥ 200 nM

compound	tested.target	label.class
CCc1cc(O)c(F)cc1-c1cc2[nH]nc(C(=O)NC)c2c(NCC(C)C)n1	rhIFNγ stimulated STAT-3 phosphorylation in the A549 human epithelial cell line	low
CCc1cc(O)c(F)cc1-c1cc2[nH]ncc2c(NCc2cc(C)ccc2N(C)S(C)(=O)=O)n1 [Example 132, hydrochloride]	rhIFNγ stimulated STAT-3 phosphorylation in the A549 human epithelial cell line	high
Cc1ccc(-c2nnc(-c3n[nH]c4cc(-c5cc(F)c(O)cc5CC(F)(F)F)nc(NCc5ccccc5N(C)S(C)(=O)=O)c34)[nH]2)cn1	rhIFNγ stimulated STAT-3 phosphorylation in the A549 human epithelial cell line	high
CCc1cc(O)c(F)cc1-c1cc2[nH]nc(C(=O)NC)c2c(N[C@@H](C)c2ccccc2N(C)S(C)(=O)=O)n1	rhIFNγ stimulated STAT-3 phosphorylation in the A549 human epithelial cell line	moderate
CNC(=O)c1n[nH]c2cc(-c3cc(F)c(O)cc3CC(F)(F)F)nc(NCc3cc(C)cnc3N(C)S(C)(=O)=O)c12	rhIFNγ stimulated STAT-3 phosphorylation in the A549 human epithelial cell line	moderate
CNC(=O)c1n[nH]c2cc(-c3cc(F)c(O)cc3CC(F)(F)F)nc(NCc3ccccc3CS(N)(=O)=O)c12	rhIFNγ stimulated STAT-3 phosphorylation in the A549 human epithelial cell line	high
CCc1cc(O)c(F)cc1-c1cc2[nH]ncc2c(N(CCc2ccc(OC)c(OC)c2)Cc2ccccc2N(C)S(C)(=O)=O)n1 [Example 129, hydrochloride]	rhIFNγ stimulated STAT-3 phosphorylation in the A549 human epithelial cell line	moderate
CCc1cc(O)c(F)cc1-c1cc2[nH]nc(C(=O)Nc3ccc(C)nc3)c2c(NCc2ccccc2N(C)S(C)(=O)=O)n1	rhIFNγ stimulated STAT-3 phosphorylation in the A549 human epithelial cell line	high
CCc1cc(O)c(F)cc1-c1cc2[nH]nc(C(=O)NC)c2c(NCc2cc(Cl)ccc2N(C)S(C)(=O)=O)n1	rhIFNγ stimulated STAT-3 phosphorylation in the A549 human epithelial cell line	low
CCN(c1ccc(Cl)cc1CNc1nc(-c2cc(F)c(O)cc2CC(F)(F)F)cc2[nH]nc(C(N)=O)c12)S(C)(=O)=O	rhIFNγ stimulated STAT-3 phosphorylation in the A549 human epithelial cell line	moderate
CNC(=O)c1n[nH]c2cc(-c3cc(F)c(O)cc3CC(F)(F)F)nc(NCc3nccnc3N(C)S(C)(=O)=O)c12	rhIFNγ stimulated STAT-3 phosphorylation in the A549 human epithelial cell line	moderate
CCc1cc(O)c(F)cc1-c1cc2[nH]ncc2c(NCc2ccccc2N(CC)S(=O)(=O)CC)n1 [Example 136, hydrochloride]	rhIFNγ stimulated STAT-3 phosphorylation in the A549 human epithelial cell line	low
CN(c1ccccc1CNc1nc(-c2cc(F)c(O)cc2CC(F)(F)F)cc2[nH]nc(C(N)=O)c12)S(=O)(=O)CCCN1CCOCC1	rhIFNγ stimulated STAT-3 phosphorylation in the A549 human epithelial cell line	high
